- TARGET OR SYSTEM: DNA topoisomerase 2-alpha (Homo sapiens) (UniProt P11388)
- Sequence (P11388 whole entry): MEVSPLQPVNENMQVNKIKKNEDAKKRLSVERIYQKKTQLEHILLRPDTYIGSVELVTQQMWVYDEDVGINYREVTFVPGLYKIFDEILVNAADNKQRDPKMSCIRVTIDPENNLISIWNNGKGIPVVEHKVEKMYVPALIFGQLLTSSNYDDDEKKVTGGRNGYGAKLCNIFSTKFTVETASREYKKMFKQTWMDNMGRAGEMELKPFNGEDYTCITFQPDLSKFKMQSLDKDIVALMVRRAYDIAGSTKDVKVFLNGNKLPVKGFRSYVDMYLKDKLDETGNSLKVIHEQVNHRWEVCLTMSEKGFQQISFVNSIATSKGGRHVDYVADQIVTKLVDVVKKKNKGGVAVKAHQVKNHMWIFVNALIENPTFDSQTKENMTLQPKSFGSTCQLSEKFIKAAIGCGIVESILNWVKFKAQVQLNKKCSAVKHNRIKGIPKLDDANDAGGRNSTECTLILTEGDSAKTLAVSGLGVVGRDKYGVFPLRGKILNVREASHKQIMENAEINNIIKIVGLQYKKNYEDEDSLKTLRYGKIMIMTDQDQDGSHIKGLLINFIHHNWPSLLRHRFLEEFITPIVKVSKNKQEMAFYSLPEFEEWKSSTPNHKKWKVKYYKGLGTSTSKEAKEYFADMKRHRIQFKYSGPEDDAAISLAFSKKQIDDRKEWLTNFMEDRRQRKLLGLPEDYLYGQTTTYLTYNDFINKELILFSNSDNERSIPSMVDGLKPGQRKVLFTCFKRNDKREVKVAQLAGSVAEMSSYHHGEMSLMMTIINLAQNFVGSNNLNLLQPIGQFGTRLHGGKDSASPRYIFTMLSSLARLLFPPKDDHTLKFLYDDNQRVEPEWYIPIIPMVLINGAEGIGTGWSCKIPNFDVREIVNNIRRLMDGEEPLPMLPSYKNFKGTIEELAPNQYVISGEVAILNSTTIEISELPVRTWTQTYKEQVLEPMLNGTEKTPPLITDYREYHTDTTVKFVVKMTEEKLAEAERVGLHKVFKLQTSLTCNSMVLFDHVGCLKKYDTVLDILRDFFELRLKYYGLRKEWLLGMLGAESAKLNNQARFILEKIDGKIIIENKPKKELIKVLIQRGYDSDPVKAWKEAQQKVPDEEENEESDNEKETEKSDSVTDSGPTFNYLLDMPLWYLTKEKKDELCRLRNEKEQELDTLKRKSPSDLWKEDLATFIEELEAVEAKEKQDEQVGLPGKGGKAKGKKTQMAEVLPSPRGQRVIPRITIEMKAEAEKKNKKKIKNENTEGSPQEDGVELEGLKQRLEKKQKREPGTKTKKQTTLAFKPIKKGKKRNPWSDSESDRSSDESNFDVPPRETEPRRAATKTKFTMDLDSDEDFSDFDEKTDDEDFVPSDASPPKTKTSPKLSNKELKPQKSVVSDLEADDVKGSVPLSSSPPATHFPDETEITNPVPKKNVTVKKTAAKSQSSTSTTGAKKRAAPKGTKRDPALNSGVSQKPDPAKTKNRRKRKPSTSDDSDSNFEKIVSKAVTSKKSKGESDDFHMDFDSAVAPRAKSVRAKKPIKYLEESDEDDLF
- EXPERIMENTAL DETAILS: Inhibition of human Top2alpha assessed as stabilization of Top2-pBr322 DNA cleavage complex measuring linear DNA formation at 100 uM incubated for 20 mins by electrophoresis method
Calls of active or inactive are those of the source. No cut-off for these calls is given here.
Pick one and only one: active, inactive

Illustrative cases are given below, each with its answer.
CN1c2cccc(O)c2C(=O)N2CCc3c([nH]c4ccc(O)cc34)C21 (stereo not given)
inactive
CN1c2ccc(O)cc2C(=O)N2CCc3c([nH]c4ccc(O)cc34)C21 (stereo not given)
inactive
CN1c2ccccc2C(=O)N2CCc3c([nH]c4ccc(O)cc34)C21 (stereo not given)
inactive

Request: For COc1cc([C@@H]2c3cc4c(cc3[C@@H](O[C@@H]3O[C@@H]5CO[C@@H](C)O[C@H]5[C@H](O)[C@H]3O)[C@H]3COC(=O)[C@H]23)OCO4)cc(OC)c1O , what call appears in the results of this test?
Response: active

Request: For CN1c2ccc(N)cc2C(=O)N2CCc3c([nH]c4ccc(O)cc34)C21 (stereo not given) , what call appears in the results of this test?
Response: inactive

* * *

- TARGET OR SYSTEM: DNA topoisomerase 1 (Homo sapiens)
- EXPERIMENTAL DETAILS: Inhibition of Top1 assessed as suppression of supercoiled pBR322 DNA relaxation measuring appearance of short DNA fragments at 100 uM incubated for 15 mins by electrophoresis method
Active and inactive are the calls of the source. The rule behind the calls is not given here.
Pick one and only one: active, inactive

CN1c2ccccc2C(=O)N2CCc3c([nH]c4ccc(O)cc34)C21 (centres undefined)
active

Request: For CN1c2ccc(N)cc2C(=O)N2CCc3c([nH]c4ccc(O)cc34)C21 (centres undefined) , what call appears in the results of this test?
Response: active

Request: For CN1c2ccc(O)cc2C(=O)N2CCc3c([nH]c4ccccc34)C21 (centres undefined) , what call appears in the results of this test?
Response: active

Request: For CN1c2cccc(O)c2C(=O)N2CCc3c([nH]c4ccccc34)C21 (centres undefined) , what call appears in the results of this test?
Response: active

Request: For CN1c2ccc(O)cc2C(=O)N2CCc3c([nH]c4ccc(O)cc34)C21 (centres undefined) , what call appears in the results of this test?
Response: active

Request: For CN1c2ccc(N)cc2C(=O)N2CCc3c([nH]c4ccccc34)C21 (centres undefined) , what call appears in the results of this test?
Response: active

* * *

Field: GI50. Provide a value for each of the compounds that follow.
- System: HepG2
- EXPERIMENTAL DETAILS: Cytotoxicity against human HepG2 cells incubated for 72 hrs by MTT assay
- Assay type: functional
- MEASUREMENT PARAMETERS: HepG2, 72 h
Numbers only, in µM.

CN1c2ccc(F)cc2C(=O)N2CCc3c([nH]c4ccc(O)cc34)C21 (centres undefined)
23.8
CN1c2ccc(F)cc2C(=O)N2CCc3c([nH]c4ccccc34)C21 (centres undefined)
188
CC[C@@]1(O)C(=O)OCc2c1cc1n(c2=O)Cc2cc3ccccc3nc2-1 [CAMPTOTHECIN]
0.22

Now let's try a different one.
Request: Checklist item: GI50 tested on HepG2, entry CN1c2ccccc2C(=O)N2CCc3c([nH]c4c(Cl)cccc34)C21 (centres undefined) , value?
Response: 2.31
